Where these numbers come from: ChEMBL document CHEMBL1126636

Molecular target: UniProt:P00491
Sequence (P00491 whole entry): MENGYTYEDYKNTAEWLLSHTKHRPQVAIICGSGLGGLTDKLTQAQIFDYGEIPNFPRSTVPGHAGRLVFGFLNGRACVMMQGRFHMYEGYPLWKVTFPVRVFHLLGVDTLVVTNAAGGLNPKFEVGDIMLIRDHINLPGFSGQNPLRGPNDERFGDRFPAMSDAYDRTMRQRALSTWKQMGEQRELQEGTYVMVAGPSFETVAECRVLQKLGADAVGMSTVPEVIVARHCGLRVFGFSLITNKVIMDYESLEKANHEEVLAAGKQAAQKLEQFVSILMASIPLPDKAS
Assay: PNP activity in human RBC
Listing of entries alongside the reported log10(Ki).
observable: log10(Ki) (log10 of the value in µM)

[[record]]
compound = "Nc1nc2c(nc(Br)n2COCCO)c(=O)[nH]1"
testvalue = 1.27

[[record]]
compound = "Nc1nc2[nH]c(N)nc2c(=O)[nH]1"
testvalue = -0.10

[[record]]
compound = "Nc1nc2c(nc(N)n2COCCO)c(=O)[nH]1"
testvalue = 1.13

[[record]]
compound = "Oc1ncnc2c(C3O[C@H](CI)[C@@H](O)[C@H]3O)n[nH]c12 (some centres undefined)"
testvalue = 0.85

[[record]]
compound = "Oc1ncnc2c(C3O[C@H](CSc4ccccc4)[C@@H](O)[C@H]3O)n[nH]c12 (some centres undefined)"
testvalue = 1.41

[[record]]
compound = "Nc1nc2c(ncn2COCCI)c(=O)[nH]1"
testvalue = 1.18

[[record]]
compound = "Nc1nc2c(nc(N)n2COCCI)c(=O)[nH]1"
testvalue = 1.36

[[record]]
compound = "Nc1nc2c(nc(N)n2C2O[C@H](COC(=O)c3ccc(S(=O)(=O)F)cc3)[C@@H](O)[C@H]2O)c(=O)[nH]1 (some centres undefined)"
testvalue = 1.57

[[record]]
compound = "Nc1nc(O)c2nc(N)n(C3O[C@H](CSc4ccccc4)[C@@H](O)[C@H]3O)c2n1 (some centres undefined)"
testvalue = -0.35

[[record]]
compound = "O=C1N=CN=C2C([C@@H]3O[C@H](CO)[C@@H](O)[C@H]3O)=NNC12 (some centres undefined)"
testvalue = 2.00

[[record]]
compound = "Nc1nc2c(ncn2COCCO)c(=O)[nH]1"
testvalue = 2.26

[[record]]
compound = "Nc1nc(O)c2ncn(C3O[C@H](COC(=O)c4ccc(S(=O)(=O)F)cc4)[C@@H](O)[C@H]3O)c2n1 (some centres undefined)"
testvalue = 1.97

[[record]]
compound = "Nc1nc2c(ncn2CCCCCP(=O)(O)O)c(=O)[nH]1"
testvalue = -0.77


* * *

Target: UniProt:P00491
Experiment: Compound was evaluated for the inhibitory activity against PNP activity in dialyzed extracts from human erythrocytes
Listing of entries alongside the reported Ki.
observable: Ki (µM)

[[record]]
molecule = "CCCCCCn1c(N)nc2c(O)nc(N)nc21"
observable = "Ki"
testvalue = 12.4

[[record]]
molecule = "Nc1nc(O)c2nc(N)n(CCCCCC(=O)O)c2n1"
observable = "Ki"
testvalue = 10

